Ref: the kinase profiling compilation of Christmann-Franck et al. (2016)

# STUDY_SYSTEM: CHEK1 (human)
# EXPERIMENT_NOTES: radiometric filter-binding kinase assay
# COND: compound 1.0 µM; ATP 20 µM
Mark TRUE only when residual activity stays strictly below 70%. Values equal to the cut-off are FALSE.

INSERT INTO measurements (compound, class) VALUES
  ('O=C1c2ccccc2-c2n[nH]c3cccc1c23', 'TRUE'),
  ('CO[C@H]1CC2CC[C@@H](C)[C@@](O)(O2)C(=O)C(=O)N2CCCC[C@H]2C(=O)OC([C@H](C)C[C@@H]2CC[C@@H](O)[C@H](OC)C2)CC(=O)[C@H](C)/C=C(\C)[C@@H](O)[C@@H](OC)C(=O)[C@H](C)C[C@H](C)/C=C/C=C/C=C/1C (stereo not given in full)', 'FALSE'),
  ('COC[C@H]1OC(=O)c2coc3c2[C@@]1(C)C1=C(C3=O)[C@@H]2CCC(=O)[C@@]2(C)C[C@H]1OC(C)=O', 'FALSE'),
  ('COc1ccc2c(c1)=NC1=C(C)NCCC=21', 'FALSE');
